- experimental_target: human SCD5 (Homo sapiens, UniProt Q86SK9)
- Construct: expressed in transfected cells; host or cells: yeast strain with OLE1 deleted, plasmid-borne human SCD5 (selected in SD-Ura)
- Sequence (Q86SK9 whole entry): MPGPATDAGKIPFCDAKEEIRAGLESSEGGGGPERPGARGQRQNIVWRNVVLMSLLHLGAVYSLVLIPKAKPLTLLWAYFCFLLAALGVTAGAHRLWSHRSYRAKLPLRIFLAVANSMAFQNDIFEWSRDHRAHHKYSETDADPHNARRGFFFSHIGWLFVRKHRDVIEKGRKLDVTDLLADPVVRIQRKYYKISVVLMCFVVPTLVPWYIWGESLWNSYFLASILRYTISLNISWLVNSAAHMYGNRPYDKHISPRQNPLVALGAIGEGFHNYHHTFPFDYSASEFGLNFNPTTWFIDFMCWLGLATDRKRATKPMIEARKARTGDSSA
- method_notes: Growth inhibition of yeast strain expressing human SCD5 as sole desaturase (OLE1 deleted), OD600 readout
- Assay type: cell-based
- condition_description: yeast strain expressing human SCD5 as sole desaturase; growth (OD600) after 40 h at 30° C.; read-out: SCD5 IC50
Entries annotated with measured pIC50
A value of pIC50 is the negative decimal logarithm of a concentration given in moles per litre.

As a guide, the following entries are already answered.
Cn1cc(C(=O)Nc2ccc(Cc3cc(F)cc(F)c3)cn2)cn1 [Compound 315]; 8.00
CCn1cccc(C(=O)Nc2ccc(Cc3cccc(F)c3)cn2)c1=O [Compound 332]; 6.32
CN1N=C(C(=O)Nc2ccc(Cc3cccc(C(F)F)c3)cn2)CCC1=O [Example 32]; 6.51
Cn1nc(C(=O)Nc2cnc(Cc3cccc(Cl)c3)nc2)ccc1=O [Compound 351]; 4.45
N#Cc1ccc(C(=O)Nc2ccc(CNc3cccc(Cl)c3)cn2)cn1 [Compound 482]; 6.21

Task: For the compound CN1N=C(C(=O)Nc2ncc(Cc3ccccc3F)s2)CCC1=O [Compound 206] , what pIC50 is on record?
Result: 5.60

Task: Thanks! And O=C(Nc1ccc(Cc2cccc(F)c2)cn1)c1ccnnc1 [Compound 143] ?
Result: 6.43

Task: Thanks! And CC(=O)c1ccc(C(=O)Nc2ccc(Cc3cccc(Cl)c3)cn2)nn1 [Compound 517] ?
Result: 6.85

Task: Thanks! And C[C@@H](O)c1ccc(C(=O)Nc2ccc(Cc3cccc(Cl)c3)cn2)cn1 [Compound 520] ?
Result: 7.05

Task: Thanks! And Cn1ccc(C(=O)Nc2ccc(Cc3ccc(F)c(F)c3)cn2)n1 [Compound 92] ?
Result: 7.70

Where do the numbers come from? From patent US20230078764A1.
